Please provide measured relative viability for the entries that follow.
Tested on: LK-2
Assay: relative viability (nuclei count vs DMSO), 5 days (fraction); higher = more cells survive
Conditions: first compound 0.8 µM

Would you mind listing relative viability for each of the following molecules?
1. Oc1nc(-c2ccc(C(F)(F)F)cc2)nc2c1CSCC2 [XAV939] + O=C(c1cc(Cc2n[nH]c(=O)c3ccccc23)ccc1F)N1CCN(C(=O)C2CC2)CC1 [Olaparib] (partner 8 µM)
2. Oc1nc(-c2ccc(C(F)(F)F)cc2)nc2c1CSCC2 [XAV939] + N=C(N)NC(=N)NCCc1ccccc1 [Phenformin] (partner 250 µM)
3. Oc1nc(-c2ccc(C(F)(F)F)cc2)nc2c1CSCC2 [XAV939] + CS(=O)(=O)CCNCc1ccc(-c2ccc3ncnc(Nc4ccc(OCc5cccc(F)c5)c(Cl)c4)c3c2)o1 [Lapatinib] (partner 2 µM)

stdout:
[0.84, 0.484, 1.04]

For the 2 molecules below, give their relative viability values.
1. C=C1C(=O)O[C@@H](CCCCCCCC)[C@@H]1C(=O)O [C-75] + Cc1nc(NC(=O)N2CCC[C@H]2C(N)=O)sc1-c1ccnc(C(C)(C)C(F)(F)F)c1 [Alpelisib] (partner 2 µM)
2. Oc1nc(-c2ccc(C(F)(F)F)cc2)nc2c1CSCC2 [XAV939] + Nc1ncn([C@H]2C[C@H](O)[C@@H](CO)O2)c(=O)n1 [Decitabine] (partner 2 µM)

stdout:
1. 1.13
2. 0.318

----------
System: COR-L 105
Assay: relative viability (nuclei count vs DMSO), 5 days (fraction); higher = more cells survive
Settings: first compound 2.53 µM
Measurement Kind: relative viability

Oc1nc(-c2ccc(C(F)(F)F)cc2)nc2c1CSCC2 [XAV939] + Nc1ncn([C@H]2C[C@H](O)[C@@H](CO)O2)c(=O)n1 [Decitabine] (partner 2 µM)	0.563

Report relative viability for each item below.
1. C=C1C(=O)O[C@@H](CCCCCCCC)[C@@H]1C(=O)O [C-75] + Nc1ncn([C@H]2C[C@H](O)[C@@H](CO)O2)c(=O)n1 [Decitabine] (partner 2 µM)
2. C=C1C(=O)O[C@@H](CCCCCCCC)[C@@H]1C(=O)O [C-75] + Cc1nc(Nc2ncc(C(=O)Nc3c(C)cccc3Cl)s2)cc(N2CCN(CCO)CC2)n1 [Dasatinib] (partner 0.075 µM)
3. C=C1C(=O)O[C@@H](CCCCCCCC)[C@@H]1C(=O)O [C-75] + Nc1nc2[nH]cc(CCc3ccc(C(=O)N[C@@H](CCC(=O)O)C(=O)O)cc3)c2c(=O)[nH]1 [Pemetrexed] (partner 0.2 µM)
4. Oc1nc(-c2ccc(C(F)(F)F)cc2)nc2c1CSCC2 [XAV939] + Cc1nc(NC(=O)N2CCC[C@H]2C(N)=O)sc1-c1ccnc(C(C)(C)C(F)(F)F)c1 [Alpelisib] (partner 2 µM)

stdout:
0.477
0.338
1.24
0.576

// input: 4 molecules below; output: relative viability for each
1. Oc1nc(-c2ccc(C(F)(F)F)cc2)nc2c1CSCC2 [XAV939] + Cc1nc(Nc2ncc(C(=O)Nc3c(C)cccc3Cl)s2)cc(N2CCN(CCO)CC2)n1 [Dasatinib] (partner 0.075 µM)
2. C=C1C(=O)O[C@@H](CCCCCCCC)[C@@H]1C(=O)O [C-75] + CC(=O)c1c(C)c2cnc(Nc3ccc(N4CCNCC4)cn3)nc2n(C2CCCC2)c1=O [Palbociclib] (partner 0.5 µM)
3. C=C1C(=O)O[C@@H](CCCCCCCC)[C@@H]1C(=O)O [C-75] + COc1cc2c(Oc3ccc(NC(=O)C4(C(=O)Nc5ccc(F)cc5)CC4)cc3F)ccnc2cc1OCCCN1CCOCC1 [Foretinib] (partner 0.25 µM)
4. C=C1C(=O)O[C@@H](CCCCCCCC)[C@@H]1C(=O)O [C-75] + COc1cccc2cc(-c3nc([C@H]4CC[C@H](C(=O)O)CC4)n4ncnc(N)c34)[nH]c12 [OSI-027] (partner 0.5 µM)

stdout:
[0.273, 0.303, 0.828, 0.515]

stdin: Given the molecule C=C1C(=O)O[C@@H](CCCCCCCC)[C@@H]1C(=O)O [C-75] + CS(=O)(=O)N1CCN(Cc2cc3nc(-c4cccc5[nH]ncc45)nc(N4CCOCC4)c3s2)CC1 [Pictilisib] (partner 1 µM) , write its reported relative viability.
stdout: 0.432
